Target: PKBα (Homo sapiens)
Construct: fused on or other part: His6 tag is likely on the Upstate products
Sequence (P31749 118-472 limits assumed): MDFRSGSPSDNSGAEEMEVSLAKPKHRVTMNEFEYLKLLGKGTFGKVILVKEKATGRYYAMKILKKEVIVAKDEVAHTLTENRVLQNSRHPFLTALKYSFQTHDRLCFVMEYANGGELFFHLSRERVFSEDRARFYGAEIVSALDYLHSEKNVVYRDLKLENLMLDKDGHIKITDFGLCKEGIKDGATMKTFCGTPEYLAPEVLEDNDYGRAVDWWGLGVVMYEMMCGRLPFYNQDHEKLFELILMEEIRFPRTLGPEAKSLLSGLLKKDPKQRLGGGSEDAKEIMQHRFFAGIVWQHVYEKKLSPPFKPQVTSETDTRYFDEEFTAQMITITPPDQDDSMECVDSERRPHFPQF
Assay: PKB kinase assay (P33-labeled ATP, peptide substrate, filter plate)
Format: biochemical
Details: with respect to PKBα
From the text: The kinase assay for evaluating PKB activity comprises active PKB enzymes, a PKB specific substrate, and P^33-labeled ATP. Two form of PKBα enzymes were used, the full length PKBα and a kinase domain of PKBα with pleckstrin domain (amino acids 1-117) deleted. […] The phosphorylated substrate was captured by a phosphocellulose membrane filter plate (MILLIPORE) and measured by a Wallac Microbeta liquid scintillation counter (Perkin Elmer). […]
pIC50: −log10 of the molar value.
PROPERTY: pIC50

1) CC(F)(F)c1ccc(C[C@H](N)CNc2nc(CO)c(-c3ccc4cnc(F)cc4c3)s2)cn1 = > 7.30
2) N[C@H](CNc1nc(CO)c(-c2ccc3cnc(F)cc3c2)s1)Cc1ccc(C(F)(F)F)nc1 = > 7.30
3) C[C@@H](c1ccc(C(F)(F)F)cc1)[C@H](N)CNc1ncc(-c2ccc3cnc(F)cc3c2)s1 = > 7.30
4) NC(CCc1nc(CO)c(-c2ccc3cnc(F)cc3c2)s1)Cc1ccc(C(F)(F)F)cc1 (racemic) = 6.00 to 7.30
5) Cn1ccc(C[C@H](N)CNc2ncc(-c3ccc4cnc(F)cc4c3)s2)cc1=O = 6.00 to 7.30
6) COCO[C@@H](c1ccc(C(F)(F)F)cc1)[C@H](N)CNc1ncc(-c2ccc3cnc(F)cc3c2)s1 = > 7.30
7) N[C@H](CNc1ncc(-c2ccc3cnc(F)cc3c2)s1)Cc1cnc(F)c(Cl)c1 = 6.00 to 7.30
8) COCc1nc(NC[C@@H](N)Cc2ccc(C(C)(F)F)nc2)sc1-c1ccc2cnc(F)cc2c1 = > 7.30
9) CC(F)(F)c1ccc(C[C@H](N)CCc2ncc(-c3ccc4cnc(F)cc4c3)s2)cn1 = > 7.30
10) COC(=O)c1nc(NC[C@@H](N)Cc2ccc(C(F)(F)F)nc2)sc1-c1ccc2cnc(F)cc2c1 = > 7.30

----------
molecular target: CYP3A4 (Homo sapiens); construct: tissue XenoTech LLC Lot 0610351; host or cells: pooled human liver microsomes; assay: CYP3A4 inhibition assay (midazolam, pooled human liver microsomes); assay type: in vitro ADME; details: pH 7.4, probe midazolam (2.5 μM), test compound 3 μM, human liver microsomes 0.1 mg/mL
Sequence (P08684 whole entry): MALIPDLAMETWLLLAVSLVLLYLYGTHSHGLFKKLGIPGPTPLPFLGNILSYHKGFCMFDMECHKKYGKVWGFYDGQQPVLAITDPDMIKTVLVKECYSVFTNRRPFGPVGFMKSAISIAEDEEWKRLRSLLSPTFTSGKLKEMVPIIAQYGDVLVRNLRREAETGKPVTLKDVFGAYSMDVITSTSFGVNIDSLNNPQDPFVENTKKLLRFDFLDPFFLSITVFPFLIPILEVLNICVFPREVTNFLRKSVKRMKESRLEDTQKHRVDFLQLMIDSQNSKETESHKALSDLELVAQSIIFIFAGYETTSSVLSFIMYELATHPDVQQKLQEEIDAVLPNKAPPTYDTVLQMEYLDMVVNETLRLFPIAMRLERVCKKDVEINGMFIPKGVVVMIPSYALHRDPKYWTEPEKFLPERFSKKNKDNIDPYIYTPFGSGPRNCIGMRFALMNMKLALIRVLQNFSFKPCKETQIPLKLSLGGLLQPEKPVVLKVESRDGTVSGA
Structures can show the parent of a compound that is named as a salt.
Lab note: class by inhibition at 10 min, 3 μM, see 1 (below 50%), 2 (50% to below 90%), 3 (90% or more)

1) COCc1nc(NC[C@@H](N)Cc2ccc(C(F)(F)F)nc2)sc1-c1ccc2cnc(F)cc2c1 = 1
2) N[C@H](CNc1ncc(-c2ccc3cnc(F)cc3c2)s1)Cc1ccc(C(F)(F)F)nc1 = 2
3) CC(F)(F)c1ccc([C@H](O)[C@H](N)CNc2ncc(-c3ccc4cnc(F)cc4c3)s2)cc1 [Example 38, trifluoroacetate] = 1
4) N[C@H](CNc1ncc(-c2ccc3cnc(F)cc3c2)s1)CN1CCC(C(F)(F)F)CC1 = 1
5) COCc1nc(NC[C@@H](N)Cc2ccc(C(F)(F)F)cc2)sc1-c1ccc2cnccc2c1 [24′, reference compound] = 3
6) N[C@H](CNc1ncc(-c2ccc3cnccc3c2)s1)Cc1ccc(C(F)(F)F)nc1 [2′, reference compound] = 3
7) N[C@H](CNc1ncc(-c2ccc3cnc(F)cc3c2)s1)Cc1ccc(C(F)(F)F)cc1 [Example 4, trifluoroacetate] = 1
8) N[C@H](CNc1ncc(-c2ccc3cnc(F)cc3c2)s1)[C@@H](CO)c1ccc(C(F)(F)F)cc1 = 1
9) N[C@H](CNc1ncc(-c2ccc3cnccc3c2)s1)CN1CCC(C(F)(F)F)CC1 [Comparative Example 25′, reference compound] = 3
10) N[C@H](CCc1ncc(-c2ccc3cnccc3c2)s1)[C@@H](O)c1ccc(C(F)(F)F)cc1 [36′, reference compound] = 2
11) CC(F)(F)c1ccc(C[C@H](N)CNc2ncc(-c3ccc4cnccc4c3)s2)cn1 [7′, reference compound] = 2
12) CC(F)(F)c1ccc(C[C@H](N)CCc2ncc(-c3ccc4cnc(F)cc4c3)s2)cn1 = 1
13) CC(F)(F)c1ccc(C[C@H](N)CNc2ncc(-c3ccc4cnc(F)cc4c3)s2)cn1 = 1
14) N[C@H](CNc1ncc(-c2ccc3cnccc3c2)s1)Cc1ccc(C(F)(F)F)cc1 [4′, reference compound] = 2
15) N[C@H](CNc1ncc(-c2ccc3cnccc3c2)s1)Cc1ccc(Cl)c(F)c1 [44′, reference compound] = 3
16) CC(F)(F)c1ccc([C@H](O)[C@H](N)CNc2ncc(-c3ccc4cnccc4c3)s2)cc1 [38′, reference compound] = 2

----------
test: In vivo pharmacokinetics, IV and oral gavage; design: species or system male Sprague-Dawley rats; details: male, Sprague-Dawley, plasma; rat, IV 2 mg/kg; read-out: IV Cmax
Documented Cmax across a set of molecules
PROPERTY: Cmax (ng/mL)

1) CC(F)(F)c1ccc([C@H](O)[C@H](N)CNc2ncc(-c3ccc4cnccc4c3)s2)cc1 [38′, reference compound] = 412
2) N[C@H](CNc1ncc(-c2ccc3cnccc3c2)s1)Cc1ccc(C(F)(F)F)nc1 [2′, reference compound] = 1260
3) N[C@H](CNc1ncc(-c2ccc3cnc(F)cc3c2)s1)[C@@H](CO)c1ccc(C(F)(F)F)cc1 = 803

----------
experiment: In vivo pharmacokinetics, IV and oral gavage; design: species or system male Sprague-Dawley rats; conditions: male, Sprague-Dawley, plasma; rat, IV 2 mg/kg; read-out: Vss
PROPERTY: Vd

1) N[C@H](CNc1ncc(-c2ccc3cnccc3c2)s1)Cc1ccc(C(F)(F)F)cc1 [4′, reference compound] = 6.17 L/kg
2) N[C@H](CNc1ncc(-c2ccc3cnc(F)cc3c2)s1)Cc1ccc(C(F)(F)F)nc1 = 5.19 L/kg
3) CC(F)(F)c1ccc(C[C@H](N)CNc2ncc(-c3ccc4cnccc4c3)s2)cn1 [7′, reference compound] = 4.55 L/kg
4) C[C@@H](c1ccc(C(F)(F)F)cc1)[C@H](N)CNc1ncc(-c2ccc3cnccc3c2)s1 [10′, reference compound] = 9.46 L/kg
5) N[C@H](CNc1ncc(-c2ccc3cnccc3c2)s1)Cc1ccc(C(F)(F)F)nc1 [2′, reference compound] = 2.32 L/kg
6) N[C@H](CNc1ncc(-c2ccc3cnc(F)cc3c2)s1)[C@@H](CO)c1ccc(C(F)(F)F)cc1 = 3.41 L/kg
7) CC(F)(F)c1ccc(C[C@H](N)CCc2ncc(-c3ccc4cnc(F)cc4c3)s2)cn1 = 15.3 L/kg
